target-of-assay: human TLR7 (Homo sapiens)
Sequence (Q9NYK1 27-1049): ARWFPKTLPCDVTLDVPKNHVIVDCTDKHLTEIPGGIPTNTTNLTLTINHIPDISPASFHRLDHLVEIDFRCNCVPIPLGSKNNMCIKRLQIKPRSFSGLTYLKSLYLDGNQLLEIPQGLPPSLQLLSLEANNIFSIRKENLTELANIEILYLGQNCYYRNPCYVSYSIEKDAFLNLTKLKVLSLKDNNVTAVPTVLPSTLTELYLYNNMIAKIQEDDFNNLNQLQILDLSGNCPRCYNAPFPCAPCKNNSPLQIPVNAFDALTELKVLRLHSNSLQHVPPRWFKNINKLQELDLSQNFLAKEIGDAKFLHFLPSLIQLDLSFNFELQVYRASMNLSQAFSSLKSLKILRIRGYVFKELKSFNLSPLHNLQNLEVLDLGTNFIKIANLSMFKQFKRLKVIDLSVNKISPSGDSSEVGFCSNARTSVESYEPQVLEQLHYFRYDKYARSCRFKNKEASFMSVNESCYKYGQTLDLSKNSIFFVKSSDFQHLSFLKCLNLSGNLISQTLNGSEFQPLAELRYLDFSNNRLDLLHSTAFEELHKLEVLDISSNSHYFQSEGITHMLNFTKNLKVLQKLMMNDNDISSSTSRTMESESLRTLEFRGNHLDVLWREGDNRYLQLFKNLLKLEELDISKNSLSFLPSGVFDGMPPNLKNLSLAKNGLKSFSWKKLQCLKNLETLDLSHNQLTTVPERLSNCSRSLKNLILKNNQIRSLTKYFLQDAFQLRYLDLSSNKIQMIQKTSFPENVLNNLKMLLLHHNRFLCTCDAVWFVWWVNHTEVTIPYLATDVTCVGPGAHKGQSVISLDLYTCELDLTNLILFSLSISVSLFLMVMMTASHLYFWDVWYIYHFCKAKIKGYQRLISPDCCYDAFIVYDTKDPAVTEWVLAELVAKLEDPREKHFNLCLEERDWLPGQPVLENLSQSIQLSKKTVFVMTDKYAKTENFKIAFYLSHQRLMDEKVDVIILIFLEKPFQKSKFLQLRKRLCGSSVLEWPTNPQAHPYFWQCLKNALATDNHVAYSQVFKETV
test-details: TLR7 inhibition reporter assay (HEK-Blue cells, SEAP reporter, gardiquimod stimulation)
assay-setup: HEK-Blue cells overexpressing human TLR7, SEAP reporter, gardiquimod 7.5 μM
Binary call on IC50 with cut-off 0.7 nM: strictly below means true, and equality or higher means false.

Is IC50 of CNC(=O)CNC1CCC(c2ccc3[nH]c(-c4cc(C)nc(C)c4)c(C(C)C)c3c2)CC1 (single isomer, unassigned) [Example 180] strictly below 0.7 nM?
false

Lab note: confirm whether the reported IC50 for this compound is below 0.7 nM, equality not counting. compound: Cc1cc(-c2[nH]c3ccc(CC4CCCN4CC(=O)N(C)C)cc3c2C(C)C)cn2ncnc12 (stereo not drawn)
false

Does the reported IC50 of COc1cc(-c2[nH]c3ccc(C4CCC(N5CC6(COC6)C5)CC4)cc3c2C(C)C)cn2ncnc12 (stereo not drawn) [Example 80] stay below 0.7 nM?
false

Consider COc1ccc(-c2[nH]c3ccc(C4CCCNC4)cc3c2C(C)C)cc1OC (stereo not drawn) . Does its IC50 lie strictly below 0.7 nM?
false

Strictly below 0.7 nM: is that where IC50 of CNC(=O)CNC1CCC(c2ccc3[nH]c(-c4cc(OC)c5ncnn5c4)c(C(C)C)c3c2)CC1 (stereo not drawn) [Example 167] sits?
true

Please state whether IC50 is below 0.7 nM for Cc1cc(-c2[nH]c3ccc(C4CCC(N(C)C)CC4)cc3c2C(C)C)cc(C)n1 (single isomer, unassigned) [Example 53]
true

Please indicate whether the reported IC50 of COc1cc(-c2[nH]c3ccc(C4CCC(N5CCCC(F)(F)C5)CC4)cc3c2C(C)C)cn2ncnc12 (stereo not drawn) [Example 35] is strictly below 0.7 nM.
false

Determine if Cc1c(-c2[nH]c3ccc(C4CNCCO4)cc3c2C(C)C)cn2ncnc2c1C (stereo not drawn) [Example 288] shows IC50 strictly lower than 0.7 nM.
true

Is it true that IC50 reported for CNCC(=O)NC1(C)CCC(c2ccc3[nH]c(-c4cc(OC)c5ncnn5c4)c(C(C)C)c3c2)CC1 (stereo not drawn) is less than 0.7 nM?
false

For this compound, is IC50 lower than 0.7 nM? COc1cc(-c2[nH]c3ccc(C4CCC(N5CC[C@H](N(C)C)C5)CC4)cc3c2C(C)C)cn2ncnc12 (stereo partly drawn) [Example 32]
true

Answer whether the compound COc1cc(-c2[nH]c3ccc(C4CCC(N(C)OC)CC4)cc3c2C(C)C)cn2ncnc12 (stereo not drawn) [Example 100] has IC50 strictly less than 0.7 nM
false
